Source: PubChem BioAssay AID504466

Assay: qHTS screen for small molecules that induce genotoxicity in human embryonic kidney (HEK293T) cells expressing luciferase-tagged ELG1; note: nearly all actives have a fitted effect of over 60% in size
Details: HEK293T ELG1-luciferase reporter, luminescence, 16 h; series mostly up to 46 µM
About 4,200 (1.3%) of roughly 330,000 compounds were called active. About 6% were inconclusive and are not listed. Calls come from the whole dose curve; as a rule, active = well fitted activation curve with a large enough effect; inconclusive = small, poorly fitted or top-dose-only effect; inactive = no such curve, though single readings can be large or run the other way. Only a selection was taken, and actives are over-represented in it overall.
Just give me one of these, please: true (1) (active), false (0) (inactive)

Worked set:
[[record]]
molecule = "Cc1ccnc(Nc2nc3ccccc3s2)n1"
discrete_label = "true (1)"

[[record]]
molecule = "Cc1cccc(C(=O)OCC(=O)Nc2ccc(F)cc2)c1"
discrete_label = "false (0)"

[[record]]
molecule = "COc1ccccc1N(CC(=O)N/N=C(\\C)c1ccccc1O)S(=O)(=O)c1ccc(C)cc1"
discrete_label = "false (0)"

[[record]]
molecule = "COc1ccccc1Nc1ncnc2c1oc1ccccc12"
discrete_label = "true (1)"

[[record]]
molecule = "C=CC[C@H](CC(=O)N(CCO)Cc1ccccc1)C(=O)N[C@@H](COC(=O)[C@@H](CC=C)Cc1ccc(F)cc1)Cc1ccccc1"
discrete_label = "false (0)"

[[record]]
molecule = "C=CCNC(=O)c1csc(-c2ccccc2)n1"
discrete_label = "false (0)"


Enquiry: Could you please tell me the result logged for `O=C(Nc1ncccc1O)c1ccc(S(=O)(=O)N2CCCC2)cc1` in this assay?
Return: false (0)

Enquiry: What do we get for `Oc1c(Br)cccc1/C=N/Nc1c(F)c(F)c(F)c(F)c1F` ?
Return: false (0)

Enquiry: What do we get for `CCN(c1ccccc1)S(=O)(=O)c1ccc(C(=O)Nc2ccccc2OC)cc1` ?
Return: false (0)

Enquiry: What do we get for `CCOc1ccccc1/C=N/Nc1nc2ccccc2o1` ?
Return: false (0)

Enquiry: What do we get for `COc1cc(/C=N\Nc2ccc([N+](=O)[O-])cn2)ccc1OCC(=O)O` ?
Return: false (0)

Enquiry: What do we get for `COc1ccc(OCC(=O)Nc2nnc(-c3ccco3)s2)cc1` ?
Return: false (0)

Enquiry: What do we get for `Cc1ccc(S(=O)(=O)N2CCN(C(=O)COC(=O)CNC(=O)c3ccc(C(C)(C)C)cc3)CC2)c(C)c1` ?
Return: false (0)

Enquiry: What do we get for `CSc1ccccc1NC(=O)c1cc(Cl)sc1Cl` ?
Return: false (0)

Enquiry: What do we get for `O=C(NCc1cccnc1)c1cccc(-c2cc3ccccc3oc2=O)c1` ?
Return: false (0)

Enquiry: What do we get for `CC[C@]12c3[nH]c4cc(CCC(=O)N(C)C)ccc4c3CCN1C(=O)[C@@H](CC(=O)NCCCn1ccnc1)C[C@@H]2C(=O)N1CCN(C(=O)C2CC2)CC1` ?
Return: false (0)

Enquiry: What do we get for COc1ccc(C(=O)COC(=O)CN2C(=O)C3CC=CCC3C2=O)c(OC)c1 (stereo not given) ?
Return: false (0)

Enquiry: What do we get for `COc1cc(/C=N/O)ccc1OCc1ccc([N+](=O)[O-])cc1` ?
Return: true (1)

Enquiry: What do we get for `CS(=O)(=O)c1ccc(C(=O)NNC(=O)c2cccs2)cc1` ?
Return: false (0)

Enquiry: What do we get for `CSc1ccccc1NC(=O)c1cnc2sc(C)cn2c1=O` ?
Return: true (1)

Enquiry: What do we get for `O=C(Nc1ccncc1)c1cc2ccccc2o1` ?
Return: false (0)

Enquiry: What do we get for `C=CCNC(=O)c1ccccc1SCc1c(C)noc1C` ?
Return: false (0)

Enquiry: What do we get for `Cc1ccc2cc3cc(C(=O)N4CCCCCC4)oc3nc2c1` ?
Return: true (1)

----------
Experiment: qHTS screen for small molecules that induce genotoxicity in human embryonic kidney (HEK293T) cells expressing luciferase-tagged ELG1; note: nearly all actives have a fitted effect of over 60% in size
Settings: HEK293T ELG1-luciferase reporter, luminescence, 16 h; series mostly up to 46 µM
About 4,200 (1.3%) of roughly 330,000 compounds were called active. Roughly 6% stayed inconclusive and do not appear here. Calls follow the shape of the dose curve; as a rule, active = well fitted activation curve with a large enough effect; inconclusive = small, poorly fitted or top-dose-only effect; inactive = no such curve, though single readings can be large or run the other way. The sample as a whole holds a higher share of actives than the screen did.
Just give me one of these, please: true for active, false for inactive

[[record]]
compound = "CCS(=O)(=O)n1nc(-c2ccccc2)nc1SCc1ccccc1"
discrete_label = "true"


Enquiry: Could you please tell me the result logged for N#CC(Cc1cc2ccccc2n1S(=O)(=O)c1ccccc1)OCc1ccccc1 (stereo unspecified) in this assay?
Return: false

Enquiry: What do we get for `Cc1noc(C)c1C(=O)Nc1ccccn1` ?
Return: false

Enquiry: What do we get for Cc1ccc2c(c1)C1C[N+](C)(CC(=O)c3ccccc3)CCC1N2C(=O)c1ccccc1Cl (stereo unspecified) ?
Return: false

Enquiry: What do we get for `CCN(CC)Cc1cc(C(C)=O)ccc1O` ?
Return: false

Enquiry: What do we get for `CC(=O)Nc1cccc(C(=O)OCC(=O)NCc2cc(C)c(O)c(C)c2)c1` ?
Return: true

Enquiry: What do we get for `CCn1c(SCc2ccccc2)nc2cc(OC)c(OC)cc2c1=O` ?
Return: false

Enquiry: What do we get for `Cc1ccc(C(=O)OCC(=O)NCc2cc(C)c(O)c(C)c2)cc1S(=O)(=O)N1CCCCC1` ?
Return: false

Enquiry: What do we get for `CC(=O)c1ccc2c(c1)OCCOCCOc1ccc(C(C)=O)cc1OCCOCCO2` ?
Return: false

Enquiry: What do we get for `CCCc1cc(=O)[nH]c(SCC(=O)Nc2ccc(S(=O)(=O)N3CCCC3)cc2)n1` ?
Return: false

Enquiry: What do we get for `COC(=O)c1oc2ccc(Br)cc2c1NC(C)=O` ?
Return: false

----------
Test: qHTS screen for small molecules that induce genotoxicity in human embryonic kidney (HEK293T) cells expressing luciferase-tagged ELG1; note: nearly all actives have a fitted effect of over 60% in size
Settings: HEK293T ELG1-luciferase reporter, luminescence, 16 h; series mostly up to 46 µM
The whole screen tested about 330,000 compounds, of which about 4,200 (1.3%) were called active. Roughly 6% stayed inconclusive and do not appear here. The call rests on the fitted dose curve; in most records, active means well fitted activation curve with a large enough effect; inconclusive means small, poorly fitted or top-dose-only effect; inactive means no such curve, though single readings can be large or run the other way. This is one part of a sample in which actives are shown more often than they occur.
Just give me one of these, please: active, inactive

Worked set:
[[record]]
compound = "Cc1noc(C)c1COc1ccc(C(=O)NCCOc2ccccc2)cc1"
discrete_label = "inactive"

[[record]]
compound = "CCOC(=O)c1cc2cc(C)ccc2[nH]1"
discrete_label = "active"

[[record]]
compound = "CCOC(=O)c1[nH]c2ccc(C)cc2c1N=C(C)N(C)C"
discrete_label = "inactive"

[[record]]
compound = "C/C(=N\\Nc1ncc(Cl)cc1Cl)c1ccc(S(=O)(=O)NCc2ccco2)cc1"
discrete_label = "inactive"

[[record]]
compound = "COc1ccc(CN2C(CC(=O)Nc3cccnc3)c3ccc(C(F)(F)F)cc3S2(=O)=O)cc1 (stereo not drawn)"
discrete_label = "inactive"


Enquiry: Could you please tell me the result logged for `CC[C@]12c3[nH]c4ccc(Cl)cc4c3CCN1C(=O)[C@@H](CC(=O)NCCN1CCOCC1)C[C@@H]2C(=O)N1CCN(C(=O)C2CC2)CC1` in this assay?
Return: inactive

Enquiry: What do we get for `Cc1cc(C)cc(NS(=O)(=O)c2ccc(F)cc2)c1` ?
Return: inactive

Enquiry: What do we get for `CC(C)Cn1c(SCC(=O)Nc2ccc(Cl)cc2F)nc(O)cc1=O` ?
Return: inactive

Enquiry: What do we get for `Cn1c(=O)n(C)c2cc(S(=O)(=O)Nc3ccc(F)cc3)ccc21` ?
Return: inactive

Enquiry: What do we get for `O=C(Nc1cccc2ccccc12)c1onc2c1CCCC2` ?
Return: active

Enquiry: What do we get for O=C1c2cccc3c([N+](=O)[O-])ccc(c23)C(=O)N1CC1CCCO1 (stereo not drawn) ?
Return: active

Enquiry: What do we get for CCOc1cccc(=O)c2c(C)n(CC3CCCO3)c(C)c12 (stereo not drawn) ?
Return: inactive

Enquiry: What do we get for `CCN(C(=O)COC(=O)CCC(=O)c1cccs1)C1CCCCC1` ?
Return: inactive

Enquiry: What do we get for `CCc1c(C)nc2cc(-c3cccs3)[nH]n2c1=O` ?
Return: active

Enquiry: What do we get for `C/C(=N\Nc1ccc(S(N)(=O)=O)cc1[N+](=O)[O-])c1cccs1` ?
Return: inactive

Enquiry: What do we get for `C/C(=N\Nc1ncc(Cl)cc1Cl)c1cccs1` ?
Return: active

Enquiry: What do we get for `Cc1ccc2[nH]c(=O)c(COC(=O)c3ccccn3)cc2c1` ?
Return: inactive

Enquiry: What do we get for `CCc1c(C)nc2cc(C)[nH]n2c1=O` ?
Return: inactive

Enquiry: What do we get for `CN1CN(C)c2ccc([N+](=O)[O-])c3cccc1c23` ?
Return: inactive

Enquiry: What do we get for `COc1ccccc1CNC(=O)COC(=O)c1cccs1` ?
Return: inactive

----------
Assay: qHTS screen for small molecules that induce genotoxicity in human embryonic kidney (HEK293T) cells expressing luciferase-tagged ELG1; note: nearly all actives have a fitted effect of over 60% in size
Settings: HEK293T ELG1-luciferase reporter, luminescence, 16 h; series mostly up to 46 µM
Among all 330,000 compounds or so, about 4,200 (1.3%) were called active. Another 6% or so got no clear call; they are omitted. Calls come from the whole dose curve; as a rule, active = well fitted activation curve with a large enough effect; inconclusive = small, poorly fitted or top-dose-only effect; inactive = no such curve, though single readings can be large or run the other way. The list comes from a sample in which actives are over-represented; it also holds close analogues and randomly drawn compounds.
Just give me one of these, please: active, inactive

Enquiry: Could you please tell me the result logged for `COc1ccc(Nc2nnc(C)c3ccccc23)cc1` in this assay?
Return: inactive

Enquiry: What do we get for `Cc1ccc(C(=O)Nc2ccc(NC(=O)c3cccs3)cc2)c(C)c1` ?
Return: inactive

Enquiry: What do we get for `O=C(COC(=O)Cn1cnc2ccccc21)Nc1cccc2c1C(=O)c1ccccc1C2=O` ?
Return: inactive
